Experiment: Cytotoxicity against human Bel7402 cells assessed as cell growth inhibition after 48 hrs by MTT assay
Type: functional, cell-based
Conditions: Bel-7402, 48 h
Labelling field: enter Fulfilled if recorded IC50 is less than 40 µM. Enter Not fulfilled if it equals or exceeds that cut-off.

>>> classification("COc1cc(OC)cc(/C(C#N)=C/c2ccc(Br)cc2)c1")
"Not fulfilled"
>>> classification("COc1cc(OC)cc(/C(C#N)=C/c2c(F)cccc2Cl)c1")
"Not fulfilled"
>>> classification("COc1cc(OC)cc(/C(C#N)=C/c2cccc(F)c2)c1")
"Not fulfilled"
>>> classification("CCc1ccc(/C=C(\\C#N)c2cc(OC)cc(OC)c2)cc1")
"Fulfilled"
>>> classification("CCOc1cccc(/C=C(\\C#N)c2cc(OC)cc(OC)c2)c1")
"Not fulfilled"

[Q] Is IC50 of "COc1cc(OC)cc(/C(C#N)=C/c2cccc3ccccc23)c1" strictly below 40 µM?
[A] Fulfilled

[Q] Also "CCCCOc1ccc(/C=C(\C#N)c2cc(OC)cc(OC)c2)cc1" ?
[A] Not fulfilled

[Q] Also "COc1cc(OC)cc(/C(C#N)=C/c2cccc(Br)c2)c1" ?
[A] Not fulfilled

[Q] Also "CCOc1ccc(/C=C(\C#N)c2cc(OC)cc(OC)c2)cc1" ?
[A] Fulfilled

[Q] Also "COc1cc(OC)cc(/C(C#N)=C/c2ccc(C)cc2)c1" ?
[A] Fulfilled

[Q] Also "COc1cc(OC)cc(/C(C#N)=C/c2ccccc2Br)c1" ?
[A] Not fulfilled

[Q] Also "COc1cc(OC)cc(/C(C#N)=C/c2ccc(OCc3ccccc3)cc2)c1" ?
[A] Not fulfilled

[Q] Also "COc1cc(OC)cc(/C(C#N)=C/c2ccc(F)cc2)c1" ?
[A] Not fulfilled

[Q] Also CC(=O)O[C@H]1C(=O)[C@@]2(C)[C@H]([C@H](OC(=O)c3ccccc3)[C@]3(O)C[C@H](OC(=O)[C@H](O)[C@@H](NC(=O)c4ccccc4)c4ccccc4)C(C)=C1C3(C)C)[C@]1(OC(C)=O)CO[C@@H]1C[C@@H]2O [PACLITAXEL] ?
[A] Fulfilled

[Q] Also "COc1cc(OC)cc(/C(C#N)=C/c2cccc(C(F)(F)F)c2)c1" ?
[A] Not fulfilled

[Q] Also "COc1cc(OC)cc(/C(C#N)=C/c2ccccn2)c1" ?
[A] Not fulfilled

[Q] Also "COc1cc(OC)cc(/C(C#N)=C/c2ccc(C(F)(F)F)cc2)c1" ?
[A] Fulfilled

[Q] Also "COc1cc(OC)cc(/C(C#N)=C/c2ccccc2Cl)c1" ?
[A] Fulfilled

[Q] Also "COc1cc(OC)cc(/C(C#N)=C/c2c(C)cc(C)cc2C)c1" ?
[A] Not fulfilled

[Q] Also "COc1cc(OC)cc(/C(C#N)=C/c2ccc(OCC(C)C)cc2)c1" ?
[A] Not fulfilled

[Q] Also "CCCOc1ccc(/C=C(\C#N)c2cc(OC)cc(OC)c2)cc1" ?
[A] Not fulfilled

[Q] Also "COc1cccc(/C=C(\C#N)c2cc(OC)cc(OC)c2)c1" ?
[A] Not fulfilled
